measured target: T1, His-tagged human TREM2 ECD (human, UniProt Q9NZC2 19-172)
T1 construct: Biacore and HDX say only recombinant human TREM2 (ECD); also called recombinant human TREM2; hTREM2
T1 sequence: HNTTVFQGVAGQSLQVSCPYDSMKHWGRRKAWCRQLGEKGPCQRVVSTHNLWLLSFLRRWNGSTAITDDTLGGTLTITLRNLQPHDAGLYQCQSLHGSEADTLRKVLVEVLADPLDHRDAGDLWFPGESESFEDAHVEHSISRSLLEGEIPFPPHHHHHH
experiment summary: SPR (Biacore), antibody captured via anti-human Fab, recombinant TREM2 ECD injected, 1:1 fit
Measured Kd, listed per entry.
Kindly answer with a numeric value in nM, unit omitted.

Known Kd results, listed for orientation:
CL0020141 (antibody, V domains shown, also called Clone CL0020141) VH: EVTLVESGGGLVQPGGSLRLSCATSGFTFTDYYMSWVRQPPGKALEWLGFIRDKANGYTTDYSASVKGRFTISRDNSQNILYLQMNTLRAEDSATYYCSRLLRAQGFAYWGQGTLVTVSA VL: DIVMSQSPSSLGVSIGEKVIMSCTSGQSLLYSNNQKNYLAWYQQKPGQSPKLLIYWASTRESGVPDRFTGSGSGTDFTLTINSVKAEDLAVYYCQQYYRNPFTFGSGTKLEIK | 4.6
CL0020205 (antibody, V domains shown, also called Clone CL0020205) VH: EVQLQQSGPVLVKPGASVKMSCKASGYTFTDYYVHWVKQSHGKSLEWIGLINPYTGTTSYNQRFRVKATLTVDKSSSTAYMEVNSLTSEDSAVYYCARSRVYYGSSLFAFWGQGTLVTVSA VL: DIVMTQSPSSLSVSAGEKVTMSCKSSQSLLNSGNQKNYLAWYQQKPGQPPKLLIYGASTRESGVPDRFTGSGSGTDFTLTISSVQAEDLAVYYCQNDHSYPYTFGGGTKLEIK | 1.52
CL0020313 (antibody, V domains shown, also called Clone CL0020313) VH: QVQLKQSGPGLLQPSQSLSITCTVSGFSLTSYGVHWVRQSPGKGLEWLGVIWSGGITLYNAAFMSRLSITKDNSKSQVFFKMNSLQADDTAIYYCAKVGYGSSSDYWGQGTTLTVSS VL: DVLMTQSPLSLPVSLGDQASFSCRSSQSIVHSNGNTYLEWYLQKPGQSPKLLIYKVSNRFSGVPDRFSGSGSGTDFTLKISRVEAEDLGVYYCFQGSHVPFTFGSGTKLEIK | 14

Switching to the query record.
Request: Provide measured Kd value, entry: CL0020195 (antibody, V domains shown, also called Clone CL0020195) VH: EVQLVESGGGLVQPGRSMMLSCSASGFTFSNYHMAWVRQAPTTGLEWVASITTGSGNTYYRHSVKGRFTISRDNAKSTLYLQMDSLRSEDTASYYCARRWYGGYEGYYFDYWGQGVMVTVSS VL: DIQMTQSPSLLSASVGDRVTLSCKAGQNVNNYLAWYQQKLGEAPKLLIYNANILQTGFPSRFSGTGSGTDFTLTISSLQPEDVATYFCQQYNSWTTFGGGTKLELK
Result: 25.7

// provenance: patent US20220119522A1
